# measurement_target: hTREX1 (Homo sapiens, UniProt Q9NSU2)
# Sequence (Q9NSU2 whole entry): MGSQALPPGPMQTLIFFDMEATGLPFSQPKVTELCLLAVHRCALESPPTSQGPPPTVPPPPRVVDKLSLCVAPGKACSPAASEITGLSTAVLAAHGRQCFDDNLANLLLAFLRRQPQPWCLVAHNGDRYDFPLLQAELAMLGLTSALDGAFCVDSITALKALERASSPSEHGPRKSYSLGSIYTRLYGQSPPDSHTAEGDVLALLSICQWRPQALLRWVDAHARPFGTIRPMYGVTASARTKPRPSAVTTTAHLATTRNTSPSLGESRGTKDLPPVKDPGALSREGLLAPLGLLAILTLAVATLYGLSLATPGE
# experiment: hTREX1 HCT116 Cell Assay (HCT116 dual cells, Lucia luciferase reporter of Type I interferon induction)
# measurement_parameters: TREX1i 4 h before pBR322/BstNI transfection, read after 48 h
measured_attribute: IC50

>>> value_observed("COCCn1ncc(C(c2ccccc2C#N)C(C)c2nc(C(=O)Nc3cnoc3)c(O)c(=O)n2C)c1C (single isomer, unassigned) [Example 69 D1E1]")
"10 to 100 nM"
>>> value_observed("COCCn1cc(C(c2cc(F)ccc2C#N)C(C)c2nc(C(=O)Nc3cnoc3)c(O)c(=O)n2C)c(C)n1 (single isomer, unassigned) [Example 103 D1E1]")
"> 100 nM"
>>> value_observed("CC(c1nc(C(=O)Nc2cnoc2)c(O)c(=O)n1C)C(c1ccccc1C#N)c1cn(C)nc1F (single isomer, unassigned) [Example 91 D1E1]")
"< 10 nM"

// IC50 lookup, key: Cc1cnc(C)c(C(c2ccccc2C#N)C(C)c2nc(C(=O)Nc3cnoc3)c(O)c(=O)n2C)n1 (single isomer, unassigned) [Example 82 D2E1] > 100 nM

Another compound to look at: CC(c1nc(C(=O)Nc2cnoc2)c(O)c(=O)n1C)C(c1cnn(CC(C)(C)O)c1)c1ccccc1C#N (single isomer, unassigned) [Example 36 D1E1] > 100 nM

Could you do the same for CCn1c(C(C)C(c2cnn(C)c2)c2ccccc2C#N)nc(C(=O)Nc2cnoc2)c(O)c1=O (single isomer, unassigned) [Example 149 D1E2] , please? 10 to 100 nM

Next: CCn1cc(C(c2ccccc2Cl)C(C)c2nc(C(=O)Nc3cnoc3)c(O)c(=O)n2C)cn1 (single isomer, unassigned) [Example 85 D1E1] 10 to 100 nM
